Values were extracted from the supplement of paper PMC9112550.

Hi there, I'd appreciate the recorded shrunken log2 fold change for every entry that follows.
# System: Escherichia coli TOP10;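 further: peptides expressed intracellularly from a pBAD plasmid library in pooled LB shake-flask culture, induced with 0.3% L-arabinose, DNA abundance read by NGS, three biological replicates, DESeq2 with apeglm shrinkage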
# Assay procedure: shrunken log2 fold change of peptide-encoding DNA abundance (4.5 h post-induction vs induction); higher = less antimicrobial activity (less host growth inhibition)
# Condition label: time post-induction: 4.5 h; library: site-saturation at positions 5, 18, 19, 20
A bare number is all that is needed in reply.

Documented shrunken log2 fold change of RRIRTRPPRLPRPRPRPKEQPRP : 0.0592

Documented shrunken log2 fold change of RRIRMRPPRLPRPRPRPVWMPRP : 0.169

Documented shrunken log2 fold change of RRIRKRPPRLPRPRPRPPPYPRP : 0.249

Documented shrunken log2 fold change of RRIRCRPPRLPRPRPRPSRIPRP : -0.562
